systemName: bovine serum albumin (BSA) with D-ribose (Bos taurus, UniProt P02769)
Sequence (P02769 25-607): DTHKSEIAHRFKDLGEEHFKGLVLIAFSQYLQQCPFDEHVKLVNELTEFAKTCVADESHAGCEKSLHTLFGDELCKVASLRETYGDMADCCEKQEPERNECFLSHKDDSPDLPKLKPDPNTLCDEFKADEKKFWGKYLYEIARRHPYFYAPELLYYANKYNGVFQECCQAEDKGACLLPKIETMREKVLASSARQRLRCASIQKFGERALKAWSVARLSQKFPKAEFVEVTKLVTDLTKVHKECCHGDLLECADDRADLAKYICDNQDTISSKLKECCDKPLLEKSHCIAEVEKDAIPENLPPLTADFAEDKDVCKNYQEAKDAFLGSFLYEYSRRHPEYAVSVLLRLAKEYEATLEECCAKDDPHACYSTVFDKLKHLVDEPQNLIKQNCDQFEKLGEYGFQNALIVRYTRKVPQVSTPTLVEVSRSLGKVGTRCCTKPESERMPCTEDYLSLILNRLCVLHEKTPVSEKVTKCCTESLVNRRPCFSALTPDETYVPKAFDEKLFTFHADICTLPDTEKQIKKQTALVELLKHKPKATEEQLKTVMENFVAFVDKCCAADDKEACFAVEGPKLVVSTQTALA
testProtocol: biochemical

compound	IC50, µM
CC(C)NC[C@H](O)c1ccc(O)c(O)c1 [(R)-Isoproterenol]	18.1

* * *

systemName: bovine serum albumin (BSA) with D-ribose (Bos taurus, UniProt P02769)
testProtocol: Maillard fluorescence-based anti-glycation assay
conditionsUsed: in vitro anti-glycation; maximum inhibition of Maillard fluorescence
Parameter threshold = 90%. Response is true (1) when Imax meets or exceeds it, else false (0).

compound	systemName	assignedCategory
CNCC(O)c1ccc(O)c(O)c1 (racemic) [(R,S)-Epinephrine]	bovine serum albumin (BSA) with D-ribose (Bos taurus, UniProt P02769)	false (0)
NC[C@@H](O)c1ccc(O)c(O)c1 [(S)-Norepinephrine]	bovine serum albumin (BSA) with D-ribose (Bos taurus, UniProt P02769)	true (1)
CC(C)NC[C@H](O)c1ccc(O)c(O)c1 [(R)-Isoproterenol]	bovine serum albumin (BSA) with D-ribose (Bos taurus, UniProt P02769)	false (0)
CC(C)NC[C@@H](O)c1ccc(O)c(O)c1.O=C(O)C(O)C(O)C(=O)O [(S)-Isoproterenol, (S)-isoproterenol bitartrate]	bovine serum albumin (BSA) with D-ribose (Bos taurus, UniProt P02769)	false (0)
